The measurements presented in this section are drawn from patent US10363239B2.

Recorded measurements of inhibition at 0.01 µM, one per entry
MEASURED_TARGET: FLNA pentapeptide of SEQ ID NO: 1 (Bn-VAKGL) (Homo sapiens, UniProt P21333)
MEASUREMENT_NOTES: FITC-NLX-based FLNA screening assay (inhibition of FITC-naloxone binding to Bn-VAKGL on streptavidin plates)
PARTICULARS: FLNA-binding compound 0.01 μM; 10 nM FITC-NLX; read-out: Percent Binding Inhibition
# unit: % | format: bare number

Some solved entries appear below for comparison.
- N#Cc1ccc(S(=O)(=O)N2CCC3(CC2)OCCN3S(=O)(=O)c2ccc(C#N)cc2)cc1 [Compound C0008]: 42.2
- O=C(O)c1ccc(C(=O)N2CCC3(CC2)OCCN3S(=O)(=O)c2ccc(C(=O)O)cc2)cc1 [Compound C0021]: 34
- CC1CCC(C(C)C)C(OCC(O)CN2CCOCC2)C1 (stereo not drawn) [Compound A0004]: 40
- CC1CN(CC(O)COc2ccccc2C(C)C)CC(C)O1 (stereo not drawn) [Compound A0029]: 44.4

Challenge: Need inhibition at 0.01 µM of CC1CN(CC(O)COc2cc(F)cc(F)c2)CC(C)O1 (stereo not drawn) [Compound A0046] , thanks.
Response given: 34.3

Challenge: Same for COc1ccc(OCC(O)CN2CCOc3ccccc32)cc1 (stereo not drawn) [Compound A0076]
Response given: 36.1

Challenge: Same for CC1CCC(C(C)C)C(OCC(O)CN2CCN(CCCN3CCOCC3)CC2)C1 (stereo not drawn) [Compound A0026]
Response given: 36.4

Challenge: Same for CCCCN1CCC2(CC1)OCCN2S(=O)(=O)c1ccc(OC)cc1 [Compound C0102M]
Response given: 52.3

Challenge: Same for CC(=O)c1ccc(S(=O)(=O)N2CCOC23CCNCC3)cc1 [Compound C0046]
Response given: 30.8

---

System: mu opiate receptor (MOR)
MEASUREMENT_NOTES: MOR agonist activity using [35S]GTPγS binding assay in striatal membranes
Assay type: biochemical
PARTICULARS: 0.1 μM compound relative to DAMGO
MEASUREMENT_KIND: % DAMGO (0.1 μM) (%)
# unit: % | format: bare number

Challenge: Need % DAMGO (0.1 μM) of CC1CN(CC(O)COc2cccc(N(C)C)c2)CC(C)O1 (stereo not shown) , thanks.
Response given: 75.2

Challenge: Same for OC(COc1ccc(Br)c(F)c1)CN1CCCCC1 (stereo not shown)
Response given: 45.3

Challenge: Same for CC1CN(CC(O)COc2cccc(C(F)(F)F)c2)CC(C)O1 (stereo not shown)
Response given: 148.0

---

System: mu opiate receptor (MOR)
MEASUREMENT_NOTES: MOR agonist activity using [35S]GTPγS binding assay in striatal membranes
Assay type: biochemical
PARTICULARS: 1 μM compound relative to DAMGO
% DAMGO (1 μM) vs 90%: less than gives 1; not less than gives -1.

Use the examples below as a reference point.
* CC1CCC(C(C)C)C(OCC(O)CN2CCc3ccccc3C2)C1 (stereo not shown) | 1
* CC1CCC(C(C)C)C(OCC(O)CN2CCOCC2)C1 (stereo not shown) | 1
* OC(COc1ccc(Br)c(F)c1)CN1CCCCC1 (stereo not shown) | -1
* CC1CCC(C(C)C)C(OCC(O)CN2CCC(=O)C(C)C2)C1 (stereo not shown) | 1
* CC(=O)c1ccc(OCC(O)CN2CC(C)OC(C)C2)cc1 (stereo not shown) | 1
* OC(COc1ccc(Br)c(F)c1)CN1CCSCC1 (stereo not shown) | 1
* Cc1cccc(OCC(O)CN2CC(C)OC(C)C2)c1 (stereo not shown) | -1
* CC1CCC(C(C)C)C(OCC(O)CN2CCN(CCN3CCCCC3)CC2)C1 (stereo not shown) | -1
* CC1CN(CC(O)COc2ccccc2C(C)C)CC(C)O1 (stereo not shown) | 1
* CC1CCN(CC(O)COC2CC(C)CCC2C(C)C)CC1 (stereo not shown) | 1

Challenge: Is the reported % DAMGO (1 μM) for COc1ccc(OCC(O)CN2CC(C)OC(C)C2)cc1 (stereo not shown) strictly below 90%?
Response given: -1

Challenge: Same for CC1CCC(C(C)C)C(OCC(O)CN2CC(C)OC(C)C2)C1 (stereo not shown) [Compound A0032-1]
Response given: -1

Challenge: Same for CC1CCC(C(C)C)C(OCC(O)CN2CCN(CCN3CCOCC3)CC2)C1 (stereo not shown)
Response given: -1

Challenge: Same for COc1ccc(N2CCN(CC(O)COC3CC(C)CCC3C(C)C)CC2)c(OC)c1 (stereo not shown)
Response given: 1

Challenge: Same for OC(COc1cccc(F)c1)CN1CCc2ccccc2C1 (stereo not shown)
Response given: 1

Challenge: Same for OC(COc1cccc(C(F)(F)F)c1)CN1CCc2ccccc2C1 (stereo not shown)
Response given: 1

Challenge: Same for CC1CCC(C(C)C)C(OCC(O)CN2CCN(CCCN3CCOCC3)CC2)C1 (stereo not shown)
Response given: 1

Challenge: Same for CC1CCC(C(C)C)C(OCC(O)CN2CCCCC2=O)C1 (stereo not shown)
Response given: 1

---

Tested on: mu opiate receptor (MOR)
MEASUREMENT_NOTES: MOR agonist activity using [35S]GTPγS binding assay in striatal membranes
Assay type: biochemical
PARTICULARS: Series C-1; 1 μM compound + β-FNA, relative to DAMGO + BFNA
Recorded measurements of % DAMGO + BFNA, one per entry
# unit: % | format: bare number

* O=S(=O)(c1ccc(C(F)(F)F)cc1Br)N1CCC2(CC1)OCCN2S(=O)(=O)c1ccc(C(F)(F)F)cc1Br | 513.3
* N#Cc1ccc(S(=O)(=O)N2CCC3(CC2)OCCN3S(=O)(=O)c2ccc(C#N)cc2)cc1 | 4.4
* O=C(c1ccc([N+](=O)[O-])cc1)N1CCC2(CC1)OCCN2S(=O)(=O)c1ccc([N+](=O)[O-])cc1 [Compound C0022] | 25.7
* CC(=O)c1ccc(S(=O)(=O)N2CCC3(CC2)NC(=O)CN3Cc2ccccc2)cc1 [Compound C0085M] | 112.6
* CNc1ccc(S(=O)(=O)N2CCC3(CC2)OCCN3S(=O)(=O)c2ccc(NC)cc2)cc1 | 135.1
* CC(O)c1ccc(S(=O)(=O)N2CCC3(CC2)OCCN3S(=O)(=O)c2ccc(C(C)O)cc2)cc1 (stereo not shown) | 127.0

Please turn your attention to the following entry.
Challenge: Look up % DAMGO + BFNA with mu opiate receptor (MOR) for this molecule: COc1ccc(C(=O)N2CCC3(CC2)OCCN3C(=O)c2ccc(OC)cc2)cc1
Response given: 143.2

---

MEASURED_TARGET: FLNA pentapeptide of SEQ ID NO: 1 (Bn-VAKGL) (Homo sapiens, UniProt P21333)
MEASUREMENT_NOTES: FITC-NLX-based FLNA screening assay (inhibition of FITC-naloxone binding to Bn-VAKGL on streptavidin plates)
PARTICULARS: read-out: Percent Binding Inhibition, FLNA-binding compound 0.01 μM; 10 nM FITC-NLX
MEASUREMENT_KIND: inhibition at 0.01 µM (%)
# unit: % | format: bare number

Some solved entries appear below for comparison.
* CC(=O)c1ccc(S(=O)(=O)N2CCC3(CC2)NC(=O)CN3S(=O)(=O)c2ccc(C(C)=O)cc2)cc1 | 37.3
* COc1ccc(OCC(O)CN2CCc3ccccc3C2)cc1 (stereo not shown) | 34.8

Challenge: Need inhibition at 0.01 µM of O=S(=O)(c1ccc(OC(F)(F)F)cc1)N1CCC2(CC1)OCCN2S(=O)(=O)c1ccc(OC(F)(F)F)cc1 , thanks.
Response given: 41.6

Challenge: Same for COc1ccc(OC)c(CCC(=O)CC2c3c(cc4c(c3OC)OCO4)CC[N+]2(C)C)c1 (stereo not shown)
Response given: 35.2

---

MEASURED_TARGET: FLNA pentapeptide of SEQ ID NO: 1 (Bn-VAKGL) (Homo sapiens)
MEASUREMENT_NOTES: FITC-NLX-based FLNA screening assay (inhibition of FITC-naloxone binding to Bn-VAKGL on streptavidin plates)
PARTICULARS: FLNA-binding compound 1 μM; 10 nM FITC-NLX; read-out: Percent Binding Inhibition
So basically: inhibition at 1 µM at 50% or higher? That is True. Lower than 50%? That is False.

Use the examples below as a reference point.
• CC1CCC(C(C)C)C(OCC(O)CN2CCCCC2=O)C1 (stereo not shown) [Compound A0036] = True
• COc1ccc(S(=O)(=O)N2CCC3(OCCN3S(=O)(=O)c3ccc(OC)cc3)C3CCCCC32)cc1 (stereo not shown) [Compound C0144M] = True
• COc1c2c(cc3c1C(CC(=O)CCc1ccccc1)N(C)CC3)OCO2 (stereo not shown) [Compound B0050] = False
• CC1CCC(C(C)C)C(OCC(CN2CC(C)OC(C)C2)NCc2ccccc2)C1 (stereo not shown) [Compound A0033] = True
• COc1ccc(S(=O)(=O)N2CCOC23CCN(C(C)C)CC3)cc1 [Compound C0133M] = True
• NS(=O)(=O)c1ccc(S(=O)(=O)N2CCC3(CC2)NCCO3)cc1 [Compound C0034-3] = False
• CC1CCC(C(C)C)C(OCC(O)CN2CCCCCC2)C1 (stereo not shown) [Compound A0013] = False
• COC(=O)c1ccc(S(=O)(=O)N2CCC3(CC2)OCCN3S(=O)(=O)c2ccc(C(=O)OC)cc2)cc1 [Compound C0028] = False

Challenge: Is the recorded value of inhibition at 1 µM equal to or greater than 50% for this compound? CC1CCC(C(C)C)C(OCC(O)CN2CCN(CCN3CCOCC3)CC2)C1 (stereo not shown) [Compound A0011]
Response given: True

Challenge: Same for CC(=O)c1ccc(S(=O)(=O)N2CCC3(CC2)OCC(CCCCN(C)C)N3S(=O)(=O)c2ccc(C(C)=O)cc2)cc1 (stereo not shown) [Compound C0080]
Response given: True

Challenge: Same for CCCCc1ccc(S(=O)(=O)N2CCC3(CC2)OCCN3S(=O)(=O)c2ccc(CCCC)cc2)cc1 [Compound C0030]
Response given: True

Challenge: Same for CC(=O)c1ccc(C(=O)N2CCC3(CC2)OCCN3C(=O)c2ccc(C(C)=O)cc2)cc1 [Compound C0054]
Response given: False

Challenge: Same for CC1CN(CC(O)COc2ccc(Br)c(Cl)c2)CC(C)O1 (stereo not shown) [Compound A0045]
Response given: False
